From: patent US4906662A

- subject_of_test: 5-lipoxygenase (Cavia porcellus)
- Construct: endogenous in cells; host or cells: guinea pig peritoneal exudate cells (casein-elicited), intact cell suspension
- run_description: 5-Lipoxygenase inhibitory activity (5-HETE formation in guinea pig peritoneal exudate cells)
- Type: cell-based
- test_conditions: 1 μM; read-out: Percent inhibition of 5-lipoxygenase
Where a name gives a salt, the structure may show the parent alone.
assay_endpoint: inhibition at 1 µM (%)

Example cases with answers are listed next.
{"columns": ["compound", "inhibition at 1 µM [%]"],
 "data": [
  ["COC(=O)Cc1ccc(Nc2cc(C)c(O)c3c2CCCC3)cc1 [Compound 87]", 89],
  ["CC(C)(C)c1cc(Nc2ccc(N)cc2)cc(C(C)(C)C)c1O [Compound 14]", 15],
  ["COc1ccc(Nc2cc(C)c(O)c(C)c2C)cc1 [Compound 91]", 95]
]}

P = Cc1cc(Nc2ccc(C(=O)O)cc2)c(C)c(C)c1O [Compound 102]
Q = CC(C)(C)c1cc(Nc2ccc(CCCC(=O)O)cc2)cc(C(C)(C)C)c1O [Compound 22]
R = Cc1cc(Nc2ccc(Cl)cc2)c(C)c(C)c1O [Compound 94]
S = CN(C)c1ccc(Nc2cc(C(C)(C)C)c(O)c(C(C)(C)C)c2)cc1 [Compound 42, dihydrochloride]
(Q) Arrange the 4 entries by inhibition at 1 µM so the values rise. Write the labels in rank order as requested.
(A) S, Q, P, R
(S: 19%, Q: 28%, P: 42%, R: 90%)

---

- subject_of_test: 5-lipoxygenase (Cavia porcellus, UniProt A0A286X958)
- Construct: endogenous in cells; host or cells: guinea pig peritoneal exudate cells (casein-elicited), intact cell suspension
- run_description: 5-Lipoxygenase inhibitory activity (5-HETE formation in guinea pig peritoneal exudate cells)
- Assay type: cell-based
- test_conditions: 10 μM; read-out: Percent inhibition of 5-lipoxygenase
- Description: […]
assay_endpoint: inhibition at 10 µM (%)

Example cases with answers are listed next.
{"columns": ["compound", "subject_of_test", "inhibition at 10 µM (%)"],
 "data": [
  ["Cc1cc(Nc2ccccc2)c2c(c1O)CCCC2 [Compound 80]", "5-lipoxygenase (Cavia porcellus, UniProt A0A286X958)", 94],
  ["CC(C)(C)c1cc(Nc2cc(Cl)ccc2O)cc(C(C)(C)C)c1O [Compound 19]", "5-lipoxygenase (Cavia porcellus, UniProt A0A286X958)", 58],
  ["CC(=O)c1ccc(Nc2cc(C(C)(C)C)c(O)c(C(C)(C)C)c2)cc1 [Compound 9]", "5-lipoxygenase (Cavia porcellus, UniProt A0A286X958)", 67]
]}

a = CC(C)(C)c1cc(Nc2ccccc2CO)cc(C(C)(C)C)c1O [Compound 32]
b = Cc1cc(Nc2ccccc2)c(C)c(C)c1O [Compound 79, 2,3,6-trimethyl-4-phenylaminophenol]
(Q) In terms of reported inhibition at 10 µM, does a or b have the smaller number? Please indicate the selected item by its label.
(A) a
(a: 63%, b: 93%)

---

- subject_of_test: 5-lipoxygenase (Cavia porcellus)
- Construct: endogenous in cells; host or cells: guinea pig peritoneal exudate cells (casein-elicited), intact cell suspension
- run_description: 5-Lipoxygenase inhibitory activity (5-HETE formation in guinea pig peritoneal exudate cells)
- Type: cell-based
- test_conditions: 10 μM; read-out: Percent inhibition of 5-lipoxygenase
Structures can show the parent of a compound that is named as a salt.
assay_endpoint: inhibition at 10 µM (%)

Example cases with answers are listed next.
{"columns": ["molecule", "inhibition at 10 µM (%)"],
 "data": [
  ["Cc1ccc(Nc2cc(C(C)(C)C)c(O)c(C(C)(C)C)c2)c(C(=O)O)c1", 71],
  ["Cc1ccc(Nc2cc(C(C)(C)C)c(O)c(C(C)(C)C)c2)cc1", 51],
  ["CC(C)(C)c1cc(Nc2ccc(N)cc2)cc(C(C)(C)C)c1O", 57],
  ["Cc1cc(Nc2ccc(Cl)cc2)c(C)c(C)c1O", 96],
  ["Cc1cc(Nc2ccc(C(=O)O)cc2)c(C)c(C)c1O", 90],
  ["CC(C)(C)c1cc(Nc2ccc(CCCC(=O)O)cc2)cc(C(C)(C)C)c1O", 67]
]}

1 = CN(C)c1ccc(Nc2cc(C(C)(C)C)c(O)c(C(C)(C)C)c2)cc1 [Compound 42, dihydrochloride]
2 = Cc1cc(Nc2cccc(CC(=O)O)c2)c(C)c(C)c1O
(Q) Pick the one with the larger inhibition at 10 µM: 1 vs 2 Please indicate the selected item by its label.
(A) 2

---

- subject_of_test: 5-lipoxygenase (Cavia porcellus, UniProt A0A286X958)
- Construct: endogenous in cells; host or cells: guinea pig peritoneal exudate cells (casein-elicited), intact cell suspension
- run_description: 5-Lipoxygenase inhibitory activity (5-HETE formation in guinea pig peritoneal exudate cells)
- Assay type: cell-based
- test_conditions: 1 μM; read-out: Percent inhibition of 5-lipoxygenase
Structures can show the parent of a compound that is named as a salt.
assay_endpoint: inhibition at 1 µM (%)

{"columns": ["molecule", "measured"],
 "data": [
  ["CCOC(=O)/C=C/c1cccc(Nc2cc(C)c(O)c(C)c2C)c1 [Compound 52, hydrochloride]", 75],
  ["Cc1cc(Nc2ccccc2)c(C)c(C)c1O", 87],
  ["CC(C)(C)c1cc(Nc2ccc(F)cc2)cc(C(C)(C)C)c1O", 24],
  ["Cc1cc(Nc2ccc(CC(=O)O)cc2)c2c(c1O)CCCC2", 55],
  ["Cc1ccc(Nc2cc(C(C)(C)C)c(O)c(C(C)(C)C)c2)c(C(=O)O)c1", 19],
  ["CC(Cc1ccc(O)c(O)c1)C(C)Cc1ccc(O)c(O)c1 (stereo not drawn) [NDGA, nordihydroguaiaretic acid, reference compound]", 45],
  ["Cc1ccc(Nc2cc(C)c(O)c(C)c2C)cc1", 91],
  ["CC(=O)c1ccc(Nc2cc(C(C)(C)C)c(O)c(C(C)(C)C)c2)cc1", 27]
]}

I = CC(C)(C)c1cc(Nc2ccccc2CO)cc(C(C)(C)C)c1O
II = CC(C)(C)c1cc(Nc2ccccc2)cc(C(C)(C)C)c1O [2,6-di-tert-butyl-4-phenylaminophenol, reference compound]
III = CC(C)(C)c1cc(Nc2cccc(CO)c2)cc(C(C)(C)C)c1O [Compound 31, hydrochloride]
IV = COC(=O)Cc1ccc(Nc2cc(C)c(O)c(C)c2C)cc1
(Q) Please list these molecules in decreasing order of inhibition at 1 µM. Write the labels in rank order as requested.
(A) IV, III, I, II

---

- subject_of_test: 5-lipoxygenase (Cavia porcellus, UniProt A0A286X958)
- Construct: endogenous in cells; host or cells: guinea pig peritoneal exudate cells (casein-elicited), intact cell suspension
- Sequence (A0A286X958 1-674): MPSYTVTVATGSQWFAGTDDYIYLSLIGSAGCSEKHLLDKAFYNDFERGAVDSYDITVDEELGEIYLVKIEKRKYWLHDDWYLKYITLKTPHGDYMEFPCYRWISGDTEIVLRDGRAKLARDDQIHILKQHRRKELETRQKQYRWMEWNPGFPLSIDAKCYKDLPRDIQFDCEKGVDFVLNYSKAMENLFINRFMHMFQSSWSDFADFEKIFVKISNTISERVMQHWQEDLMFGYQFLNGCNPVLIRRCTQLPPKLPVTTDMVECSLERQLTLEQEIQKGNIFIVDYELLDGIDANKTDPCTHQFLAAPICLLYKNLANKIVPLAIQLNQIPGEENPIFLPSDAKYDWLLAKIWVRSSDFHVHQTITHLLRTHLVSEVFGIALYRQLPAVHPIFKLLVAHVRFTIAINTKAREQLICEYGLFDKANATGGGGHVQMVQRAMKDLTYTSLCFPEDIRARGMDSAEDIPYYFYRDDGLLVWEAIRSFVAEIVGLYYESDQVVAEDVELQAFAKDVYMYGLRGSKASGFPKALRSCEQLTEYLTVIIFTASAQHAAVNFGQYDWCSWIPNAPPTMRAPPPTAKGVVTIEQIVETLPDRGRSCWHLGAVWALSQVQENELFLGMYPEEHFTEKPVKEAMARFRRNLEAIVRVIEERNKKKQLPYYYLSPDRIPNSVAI
- run_description: 5-Lipoxygenase inhibitory activity (5-HETE formation in guinea pig peritoneal exudate cells)
- Format: cell-based
- test_conditions: 10 μM; read-out: Percent inhibition of 5-lipoxygenase
Counter-ions that a name gives are not always drawn.
assay_endpoint: inhibition at 10 µM (%)

{"columns": ["compound", "inhibition at 10 µM (%)"],
 "data": [
  ["CC(C)(C)c1cc(Nc2ccc(CCO)cc2)cc(C(C)(C)C)c1O", 86],
  ["CC(C)(C)c1cc(Nc2ccccc2)cc(C(C)(C)C)c1O [2,6-di-tert-butyl-4-phenylaminophenol, reference compound]", 62],
  ["Cc1ccc(Nc2cc(C)c(O)c(C)c2C)cc1", 95],
  ["COC(=O)Cc1ccc(Nc2cc(C)c(O)c(C)c2C)cc1", 92],
  ["CC(C)(C)c1cc(Nc2ccc(CC(=O)O)cc2)cc(C(C)(C)C)c1O", 46],
  ["CCOC(=O)/C=C/c1cccc(Nc2cc(C)c(O)c(C)c2C)c1 [Compound 52, hydrochloride]", 95]
]}

1 = CC(C)(C)c1cc(Nc2ccccc2C(=O)O)cc(C(C)(C)C)c1O
2 = COC(=O)Cc1ccc(Nc2cc(C)c(O)c3c2CCCC3)cc1
(Q) In terms of reported inhibition at 10 µM, does 1 or 2 have the smaller number? Please indicate the selected item by its label.
(A) 1
(1: 66%, 2: 95%)
